Measured λmax accompanies every entry in the list below.
assay_overview: wavelength (λmax) at absorption spectrum peak and gram absorption coefficient at λmax
Format: physicochemical
settings: wavelength at absorption spectrum peak

CCN(CC)C(=O)/C=C/c1ccc(OC)cc1 [Compound 1] ... 309 nm
COc1ccc(C=C(C)C(=O)n2ccnc2)cc1 [Compound 18] ... 301 nm

# ---- query compound ----
## Task Sample CCN(CC)C(=O)C=Cc1ccc(OC)cc1O [compound 7, reference compound] — what was its λmax?
## Result 304 nm

* * *

Listing of recorded Gram Absorption Coefficient at λmax by entry.
assay_overview: wavelength (λmax) at absorption spectrum peak and gram absorption coefficient at λmax
Assay type: physicochemical
Output spec: single numeric token, no unit.

COc1ccccc1/C=C/C(=O)N1CCCCC1 [Comparative Compound 2, reference compound] ... 76
COc1ccc(/C=C/C(=O)N2CCCCC2)c([N+](=O)[O-])c1 ... 87
COc1ccc(C=CC(=O)N2CCCCC2)cc1 ... 74

Next item in the queue.
## Task Reported Gram Absorption Coefficient at λmax for COc1ccc(/C=C(\C)C(=O)N2CCCCC2)cc1[N+](=O)[O-] : what is it?
## Result 105

* * *

assay_overview: wavelength (λmax) at absorption spectrum peak and gram absorption coefficient at λmax
Format: physicochemical
metric_name: Gram Absorption Coefficient at λmax
// response body must contain only the number

Use these answered entries as a reference point.
CCN(CC)C(=O)/C=C/c1ccc(OC)cc1[N+](=O)[O-] ... 102
COc1ccc(/C=C/C(=O)n2ccnc2)c([N+](=O)[O-])c1 ... 121
COc1ccc(/C=C/C(=O)n2ccnc2)cc1 ... 81

Query molecule follows.
## Task I'd like to know its Gram Absorption Coefficient at λmax. The molecule in question is CCN(CC)C(=O)C(C)=Cc1ccc(OC)cc1
## Result 86

Data provenance is patent US9244346B2.
